tested on: corn; test: Test B pre/postemergence corn; assay type: in vivo, Zea mays; conditions: Preemergence, Rate 125 g/ha; scale of 0 to 10 where 0 is no effect and 10 is complete control
The compounds listed here are annotated with their Corn plant response rating.
PARAMETER: Corn plant response rating

In [3]: df
Out[3]:
                                   compound                   parameter  value
0  CC(C)N(C(=O)n1oc(=O)n(CCCCF)c1=O)c1ccccc1  Corn plant response rating      2
1  CCC(C)n1c(=O)on(C(=O)N(c2ccc(F)cc2)C(C)C)c1=O (stereo not shown)  Corn plant response rating      3
2  CC(=O)OCC(CCl)n1c(=O)on(C(=O)N(c2ccc(F)cc2)C(C)C)c1=O (stereo not shown)  Corn plant response rating      0
3  CCc1nc(C)c(C(C)n2c(=O)on(C(=O)N(c3ccc(F)cc3F)C(C)C)c2=O)s1 (stereo not shown)  Corn plant response rating      0
